test: SMARCA2 (BRM) function activators, primary screen, cell-based, luminescence, high throughput (AID 652017); settings: MG213 cells, MMTV-luciferase reporter, dexamethasone, overnight; at 9.1 µM; stronger effect = higher value;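 further: 0% = vehicle wells and 100% = reference activator wells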
Out of some 370,000 compounds screened, about 3,800 (1%) were called active. What follows is part of a selection rich in actives, with near analogues and random picks from the rest.
Measure: activation (%)
// return numeric value only (unit: %, not printed)

Answered examples (2):
Compound	activation, %
CC(=O)c1sc(NC(=O)c2ccc(C)cc2)nc1C	9.69
CCc1c(C)c2ccc(OC3CCCCC3=O)cc2oc1=O (configuration not stated)	13.8

Qu. Look up activation: "COc1cccc(C(=O)Nc2cc3c(cc2Br)OCCCO3)c1"
Ans. 11

Qu. Try this compound next: "CCOC(=O)c1sc(/N=C/Nc2nc(C)c(C(=O)OCC)s2)nc1C"
Ans. -0.22

Qu. // same read-out, input: "COc1cccc(CNC(=O)CNS(=O)(=O)c2ccc3nc(C)sc3c2)c1OC"
Ans. -2.54

Qu. Now try "COc1ccc(NC(=O)c2sccc2SCC#N)cc1" .
Ans. 8.69

Qu. Next up: COc1ccc(CC2c3cc(OC)c(OC)cc3CC[N+]2(C)CCC(=O)OCCCCCOC(=O)CC[N+]2(C)CCc3cc(OC)c(OC)cc3C2Cc2ccc(OC)c(OC)c2)cc1OC (configuration not stated)
Ans. 11.4

Qu. Cool, now "Cc1ccc(C(=O)Nc2nc(N)n(-c3ccccc3)n2)cc1"
Ans. -1.21

Qu. How about "COc1cccc(/C=C/C(=O)Nc2ccc3c(c2)OCCO3)c1" ?
Ans. 5.29

Qu. // same read-out, input: "O=C(Nc1ccccc1)N1CCN(Cc2nc3ccccc3c(=O)[nH]2)CC1"
Ans. -4.04

Qu. Next entry: "CC(=O)c1sc(N/N=C\c2ccc(C)cc2)nc1C"
Ans. 13.4

Qu. Entry "CC1(C)CC(=O)C=C(NCCCN2CCCC2=O)C1" please
Ans. 0.48

Qu. Repeat for the following compound: "COc1ccc(OC)c(NC(=O)c2cccc(S(=O)(=O)N3CCN(C(C)=O)CC3)c2)c1"
Ans. -1.12

Qu. Further, for "COc1ccc(CN2CCOC2=O)cc1OC" ?
Ans. -2.13

Qu. Would you mind doing "O=C(COc1ccc2c3c(c(=O)oc2c1)CCC3)NC1CCCCC1" as well?
Ans. -1.03

Qu. Entry "COC(=O)C1=CN(Cc2ccc(OC)c(OC)c2)C=C(C(=O)OC)C1c1cccs1" please
Ans. -1.26
